system: CYP2C19 (Homo sapiens, UniProt P33261)
measurement_notes: Inhibition of human CYP2C19 at 10 uM relative to control
Format: ADME

>  <query_smiles>
COc1ccc2c(N[C@@H](C)Cc3cc(C)[nH]n3)ncnc2c1OC

>  <inhibition at 10 µM>
< 50%

$$$$

====

measurement_notes: Fraction unbound in Wistar Hannover rat plasma at 1 mg/kg, sc measured at 0.5 to 4 hrs post dose by LC-MS/MS analysis
Type: ADME, organism-based

>  <query_smiles>
COc1ccc2c(N[C@@H](C)Cc3cc(C)[nH]n3)ncnc2c1OC

>  <fraction unbound>
0.25

$$$$

====

system: Dual 3',5'-cyclic-AMP and -GMP phosphodiesterase 11A (Homo sapiens, UniProt Q9HCR9)
measurement_notes: Inhibition of full length recombinant human PDE11A4 using 3',5'-[3H]cGMP as substrate after 30 mins by scintillation proximity assay

>  <query_smiles>
COc1ccc2c(N[C@@H](C)Cc3cc(C)[nH]n3)ncnc2c1OC

>  <system>
Dual 3',5'-cyclic-AMP and -GMP phosphodiesterase 11A (Homo sapiens, UniProt Q9HCR9)

>  <IC50>
34.7 µM

$$$$

====

system: cGMP-specific 3',5'-cyclic phosphodiesterase (Homo sapiens, UniProt O76074)
measurement_notes: Inhibition of recombinant human PDE5A expressed in HEK293 cells using 3',5'-[3H]cGMP as substrate

>  <molecule>
COc1ccc2c(NC(C)Cc3cc(C)[nH]n3)ncnc2c1OC (racemic)

>  <IC50 (µM)>
30.3

$$$$

====

measurement_notes: Drug uptake in Wistar Hannover rat cerebrospinal fluid at 1 mg/kg, sc measured at 2 hrs post dose by LC-MS/MS analysis
Type: ADME, organism-based
run_parameters: read-out: Drug uptake
measure: concentration at 2 h (nM)

>  <query_smiles>
COc1ccc2c(N[C@@H](C)Cc3cc(C)[nH]n3)ncnc2c1OC

>  <measure>
concentration at 2 h

>  <result_value>
8

$$$$

====

system: 3',5'-cyclic-AMP phosphodiesterase 7B (Homo sapiens, UniProt Q9NP56)
measurement_notes: Inhibition of full length recombinant human PDE7B using 3',5'-[3H]cAMP as substrate after 30 mins by scintillation proximity assay

>  <query_smiles>
COc1ccc2c(N[C@@H](C)Cc3cc(C)[nH]n3)ncnc2c1OC

>  <IC50 / µM>
41.3

$$$$

====

system: cGMP-inhibited 3',5'-cyclic phosphodiesterase 3A (Homo sapiens, UniProt Q14432)
Sequence (Q14432 whole entry): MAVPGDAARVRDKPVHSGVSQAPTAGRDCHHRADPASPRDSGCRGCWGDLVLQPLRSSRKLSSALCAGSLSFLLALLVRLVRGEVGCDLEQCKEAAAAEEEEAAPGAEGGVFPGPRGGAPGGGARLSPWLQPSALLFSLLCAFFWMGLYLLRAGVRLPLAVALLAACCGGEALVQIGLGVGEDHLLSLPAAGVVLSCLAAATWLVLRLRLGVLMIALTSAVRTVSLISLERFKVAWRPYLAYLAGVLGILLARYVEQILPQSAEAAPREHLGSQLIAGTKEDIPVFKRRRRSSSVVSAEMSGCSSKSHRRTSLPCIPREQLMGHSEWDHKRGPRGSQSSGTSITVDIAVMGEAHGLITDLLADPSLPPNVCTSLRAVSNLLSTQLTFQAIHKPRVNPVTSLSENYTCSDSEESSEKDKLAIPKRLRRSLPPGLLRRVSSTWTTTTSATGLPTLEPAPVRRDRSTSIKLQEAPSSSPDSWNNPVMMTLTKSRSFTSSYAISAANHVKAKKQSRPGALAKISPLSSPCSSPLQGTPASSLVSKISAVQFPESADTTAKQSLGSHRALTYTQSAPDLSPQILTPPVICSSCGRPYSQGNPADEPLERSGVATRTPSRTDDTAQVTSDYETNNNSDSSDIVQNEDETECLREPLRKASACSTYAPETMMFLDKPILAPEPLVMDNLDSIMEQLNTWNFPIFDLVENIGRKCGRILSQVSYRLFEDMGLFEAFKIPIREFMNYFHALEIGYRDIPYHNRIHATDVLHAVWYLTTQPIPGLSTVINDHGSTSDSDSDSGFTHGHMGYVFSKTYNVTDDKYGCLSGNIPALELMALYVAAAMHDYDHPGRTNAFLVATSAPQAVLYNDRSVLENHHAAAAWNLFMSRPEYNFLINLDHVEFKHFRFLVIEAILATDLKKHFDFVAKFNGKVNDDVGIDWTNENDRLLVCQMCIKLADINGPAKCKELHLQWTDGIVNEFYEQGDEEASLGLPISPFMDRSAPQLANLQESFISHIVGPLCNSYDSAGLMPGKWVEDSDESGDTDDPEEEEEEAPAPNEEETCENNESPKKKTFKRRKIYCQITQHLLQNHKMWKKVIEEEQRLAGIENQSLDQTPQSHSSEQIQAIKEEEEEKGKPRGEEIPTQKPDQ
measurement_notes: Inhibition of recombinant human PDE3A expressed in HEK293 cells using 3',5'-[3H]cAMP as substrate
pIC50: −log10 of the molar value.

>  <compound>
COc1ccc2c(NC(C)Cc3cc(C)[nH]n3)ncnc2c1OC (racemic)

>  <pIC50>
4.00

$$$$

====

system: MAO-A (Homo sapiens, UniProt P21397)
Sequence (P21397 whole entry): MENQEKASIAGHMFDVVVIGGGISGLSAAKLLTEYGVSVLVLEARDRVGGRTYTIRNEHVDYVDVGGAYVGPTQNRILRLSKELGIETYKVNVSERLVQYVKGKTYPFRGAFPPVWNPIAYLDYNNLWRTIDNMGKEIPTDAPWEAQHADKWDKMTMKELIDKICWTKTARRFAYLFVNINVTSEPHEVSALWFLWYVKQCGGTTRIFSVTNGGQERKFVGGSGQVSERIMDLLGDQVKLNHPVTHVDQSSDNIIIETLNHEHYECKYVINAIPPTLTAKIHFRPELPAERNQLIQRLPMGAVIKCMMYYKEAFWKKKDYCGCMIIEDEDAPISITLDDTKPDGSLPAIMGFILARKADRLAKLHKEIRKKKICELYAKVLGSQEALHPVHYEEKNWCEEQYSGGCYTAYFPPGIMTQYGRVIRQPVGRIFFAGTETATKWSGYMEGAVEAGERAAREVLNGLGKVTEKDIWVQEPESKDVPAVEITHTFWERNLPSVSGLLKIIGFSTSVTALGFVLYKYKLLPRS
measurement_notes: Inhibition of human MAO-A at 10 uM relative to control

>  <query_smiles>
COc1ccc2c(N[C@@H](C)Cc3cc(C)[nH]n3)ncnc2c1OC

>  <inhibition at 10 µM>
< 50%

$$$$

====

system: Dual specificity calcium/calmodulin-dependent 3',5'-cyclic nucleotide phosphodiesterase 1C (Homo sapiens, UniProt Q14123)
Sequence (Q14123 whole entry): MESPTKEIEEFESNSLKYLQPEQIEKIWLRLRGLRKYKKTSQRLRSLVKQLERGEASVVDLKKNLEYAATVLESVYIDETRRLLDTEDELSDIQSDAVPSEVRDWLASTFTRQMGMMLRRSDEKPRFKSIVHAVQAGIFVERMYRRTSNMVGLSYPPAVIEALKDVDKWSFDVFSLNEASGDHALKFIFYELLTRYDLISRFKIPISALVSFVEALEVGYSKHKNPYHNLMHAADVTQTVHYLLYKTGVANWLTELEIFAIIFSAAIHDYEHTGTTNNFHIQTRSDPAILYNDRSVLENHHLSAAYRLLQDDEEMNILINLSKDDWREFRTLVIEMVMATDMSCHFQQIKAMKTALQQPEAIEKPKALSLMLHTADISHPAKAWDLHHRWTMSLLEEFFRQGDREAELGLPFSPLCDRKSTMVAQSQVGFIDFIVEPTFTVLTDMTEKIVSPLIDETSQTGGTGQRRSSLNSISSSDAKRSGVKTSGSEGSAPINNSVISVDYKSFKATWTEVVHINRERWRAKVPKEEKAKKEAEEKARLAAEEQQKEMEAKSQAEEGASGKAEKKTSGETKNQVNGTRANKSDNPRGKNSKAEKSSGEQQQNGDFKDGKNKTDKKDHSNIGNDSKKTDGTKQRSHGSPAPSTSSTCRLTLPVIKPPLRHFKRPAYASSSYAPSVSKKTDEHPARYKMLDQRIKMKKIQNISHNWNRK
measurement_notes: Inhibition of recombinant C-terminal FLAG tagged human PDE1C expressed in HEK293 cells using 3',5'-[3H]cGMP as substrate

>  <molecule>
COc1ccc2c(NC(C)Cc3cc(C)[nH]n3)ncnc2c1OC (racemic)

>  <IC50 (nM)>
110

$$$$

====

measurement_notes: Ratio of drug uptake in cerebrospinal fluid to fraction unbound in plasma in Wistar Hannover rat at 1 mg/kg, sc measured at 0.5 hrs post dose by LC-MS/MS analysis
Type: ADME, organism-based, CSF/Plasma
run_parameters: in vivo
measure: Ratio

>  <query_smiles>
COc1ccc2c(N[C@@H](C)Cc3cc(C)[nH]n3)ncnc2c1OC

>  <measure>
Ratio

>  <result_value>
0.12 to 0.14

$$$$

====

system: BCRP (ABCG2) (Homo sapiens, UniProt Q9UNQ0)
Sequence (Q9UNQ0 whole entry): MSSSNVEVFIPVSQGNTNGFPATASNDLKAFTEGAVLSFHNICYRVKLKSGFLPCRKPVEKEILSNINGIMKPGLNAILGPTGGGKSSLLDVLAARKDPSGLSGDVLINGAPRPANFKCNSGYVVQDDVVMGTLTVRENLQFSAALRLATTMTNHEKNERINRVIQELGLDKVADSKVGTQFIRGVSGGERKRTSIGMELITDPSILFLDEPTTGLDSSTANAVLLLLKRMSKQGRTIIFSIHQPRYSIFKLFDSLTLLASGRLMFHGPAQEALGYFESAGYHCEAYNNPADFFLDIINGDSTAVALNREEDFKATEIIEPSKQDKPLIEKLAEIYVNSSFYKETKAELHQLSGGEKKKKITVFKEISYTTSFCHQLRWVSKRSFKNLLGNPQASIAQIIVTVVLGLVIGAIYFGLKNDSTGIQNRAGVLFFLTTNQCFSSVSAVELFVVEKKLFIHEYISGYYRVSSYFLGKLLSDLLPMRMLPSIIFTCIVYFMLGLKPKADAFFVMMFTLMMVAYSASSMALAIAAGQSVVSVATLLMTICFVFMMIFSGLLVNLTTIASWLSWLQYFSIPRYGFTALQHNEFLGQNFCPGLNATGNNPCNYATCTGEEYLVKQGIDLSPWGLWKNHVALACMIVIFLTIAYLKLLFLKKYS
measurement_notes: Substrate activity at BCRP (unknown origin) assessed as efflux ratio
run_parameters: not told
measure: efflux ratio

>  <query_smiles>
COc1ccc2c(N[C@@H](C)Cc3cc(C)[nH]n3)ncnc2c1OC

>  <system>
BCRP (ABCG2) (Homo sapiens, UniProt Q9UNQ0)

>  <measure>
efflux ratio

>  <result_value>
84

$$$$

====

system: Dual specificity calcium/calmodulin-dependent 3',5'-cyclic nucleotide phosphodiesterase 1C (Homo sapiens, UniProt Q14123)
measurement_notes: Inhibition of recombinant C-terminal FLAG tagged human PDE1C expressed in HEK293 cells using 3',5'-[3H]cAMP as substrate

>  <molecule>
COc1ccc2c(NC(C)Cc3cc(C)[nH]n3)ncnc2c1OC (racemic)

>  <IC50, µM>
0.056

$$$$

====

system: cAMP and cAMP-inhibited cGMP 3',5'-cyclic phosphodiesterase 10A (Homo sapiens)
Sequence (Q9Y233 whole entry): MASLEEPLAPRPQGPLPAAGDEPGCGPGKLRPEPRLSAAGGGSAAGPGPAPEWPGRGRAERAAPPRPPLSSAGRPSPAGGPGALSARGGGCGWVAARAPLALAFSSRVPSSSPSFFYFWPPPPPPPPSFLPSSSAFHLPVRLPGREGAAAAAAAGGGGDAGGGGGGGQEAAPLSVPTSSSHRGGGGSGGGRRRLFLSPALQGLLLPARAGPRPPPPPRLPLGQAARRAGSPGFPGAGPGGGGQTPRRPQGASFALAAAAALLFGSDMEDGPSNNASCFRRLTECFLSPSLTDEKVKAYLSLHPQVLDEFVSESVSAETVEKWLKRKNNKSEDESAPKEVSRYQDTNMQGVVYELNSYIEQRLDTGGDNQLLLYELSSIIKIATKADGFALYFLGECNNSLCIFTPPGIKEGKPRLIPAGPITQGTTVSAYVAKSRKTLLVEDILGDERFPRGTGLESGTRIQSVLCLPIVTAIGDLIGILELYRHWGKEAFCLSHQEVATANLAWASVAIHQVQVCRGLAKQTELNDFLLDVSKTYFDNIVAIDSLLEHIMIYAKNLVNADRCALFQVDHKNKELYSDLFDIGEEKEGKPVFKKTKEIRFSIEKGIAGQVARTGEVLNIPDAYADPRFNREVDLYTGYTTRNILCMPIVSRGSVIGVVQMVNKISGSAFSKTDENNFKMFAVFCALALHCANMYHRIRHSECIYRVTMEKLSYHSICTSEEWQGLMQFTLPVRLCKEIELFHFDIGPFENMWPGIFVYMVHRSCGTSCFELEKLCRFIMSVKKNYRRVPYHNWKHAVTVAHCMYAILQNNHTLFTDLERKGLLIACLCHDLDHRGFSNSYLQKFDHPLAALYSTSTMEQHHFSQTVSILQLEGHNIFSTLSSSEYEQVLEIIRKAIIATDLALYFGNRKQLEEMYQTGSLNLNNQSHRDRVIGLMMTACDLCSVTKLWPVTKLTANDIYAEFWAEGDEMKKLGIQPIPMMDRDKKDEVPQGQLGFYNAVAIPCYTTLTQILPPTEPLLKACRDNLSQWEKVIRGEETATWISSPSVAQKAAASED
measurement_notes: Inhibition of full length recombinant human PDE10A1 using 3',5'-[3H]cAMP as substrate after 30 mins by scintillation proximity assay

>  <query_smiles>
COc1ccc2c(N[C@@H](C)Cc3cc(C)[nH]n3)ncnc2c1OC

>  <IC50>
409 nM

$$$$

====

system: cGMP-inhibited 3',5'-cyclic phosphodiesterase 3A (Homo sapiens, UniProt Q14432)
measurement_notes: Inhibition of recombinant human PDE3A expressed in HEK293 cells using 3',5'-[3H]cGMP as substrate
measure: IC50 (µM)

>  <molecule>
COc1ccc2c(NC(C)Cc3cc(C)[nH]n3)ncnc2c1OC (racemic)

>  <result_value>
369

$$$$

====

system: High affinity cAMP-specific and IBMX-insensitive 3',5'-cyclic phosphodiesterase 8B (Homo sapiens)
Sequence (O95263 whole entry): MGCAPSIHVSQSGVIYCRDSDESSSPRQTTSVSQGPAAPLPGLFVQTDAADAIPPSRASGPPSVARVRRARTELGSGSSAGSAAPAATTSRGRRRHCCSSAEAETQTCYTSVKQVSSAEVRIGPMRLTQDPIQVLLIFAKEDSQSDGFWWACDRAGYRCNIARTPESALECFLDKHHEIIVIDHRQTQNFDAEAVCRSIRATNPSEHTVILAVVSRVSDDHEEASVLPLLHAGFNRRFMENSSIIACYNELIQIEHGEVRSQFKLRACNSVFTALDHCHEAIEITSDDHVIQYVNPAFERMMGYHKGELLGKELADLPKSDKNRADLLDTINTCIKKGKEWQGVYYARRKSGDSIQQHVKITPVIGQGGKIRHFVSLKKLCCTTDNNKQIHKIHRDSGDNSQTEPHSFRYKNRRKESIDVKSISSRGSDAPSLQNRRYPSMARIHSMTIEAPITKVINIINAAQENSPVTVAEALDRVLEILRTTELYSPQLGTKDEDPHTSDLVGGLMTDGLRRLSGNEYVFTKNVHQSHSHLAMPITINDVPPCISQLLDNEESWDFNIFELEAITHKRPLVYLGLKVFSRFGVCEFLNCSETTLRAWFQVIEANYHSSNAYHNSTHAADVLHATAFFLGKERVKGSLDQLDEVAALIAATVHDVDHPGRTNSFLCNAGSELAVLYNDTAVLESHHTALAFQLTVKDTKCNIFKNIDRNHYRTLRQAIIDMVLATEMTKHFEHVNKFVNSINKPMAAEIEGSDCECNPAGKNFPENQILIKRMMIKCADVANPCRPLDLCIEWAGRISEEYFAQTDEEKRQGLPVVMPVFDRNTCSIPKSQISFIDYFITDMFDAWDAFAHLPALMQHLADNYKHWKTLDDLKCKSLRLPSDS
measurement_notes: Inhibition of full length recombinant human PDE8B using 3',5'-[3H]cAMP as substrate after 30 mins by scintillation proximity assay
pIC50: −log10 of the molar value.
measure: pIC50

>  <query_smiles>
COc1ccc2c(N[C@@H](C)Cc3cc(C)[nH]n3)ncnc2c1OC

>  <result_value>
4.81

$$$$

====

measurement_notes: Drug uptake in Wistar Hannover rat cerebrospinal fluid at 1 mg/kg, sc measured at 0.5 hrs post dose by LC-MS/MS analysis
Assay type: ADME, organism-based
run_parameters: read-out: Drug uptake
measure: concentration at 0.5 h (nM)

>  <query_smiles>
COc1ccc2c(N[C@@H](C)Cc3cc(C)[nH]n3)ncnc2c1OC

>  <result_value>
21

$$$$

====

measurement_notes: Drug uptake in Wistar Hannover rat cerebrospinal fluid at 1 mg/kg, sc measured at 1 hr post dose by LC-MS/MS analysis
Assay type: ADME, organism-based
run_parameters: read-out: Drug uptake

>  <query_smiles>
COc1ccc2c(N[C@@H](C)Cc3cc(C)[nH]n3)ncnc2c1OC

>  <concentration at 1 h, nM>
16

$$$$

====

Reported pIC50 values are given for each entry in this list.
system: Dual specificity calcium/calmodulin-dependent 3',5'-cyclic nucleotide phosphodiesterase 1B (Homo sapiens, UniProt Q01064)
Sequence (Q01064 whole entry): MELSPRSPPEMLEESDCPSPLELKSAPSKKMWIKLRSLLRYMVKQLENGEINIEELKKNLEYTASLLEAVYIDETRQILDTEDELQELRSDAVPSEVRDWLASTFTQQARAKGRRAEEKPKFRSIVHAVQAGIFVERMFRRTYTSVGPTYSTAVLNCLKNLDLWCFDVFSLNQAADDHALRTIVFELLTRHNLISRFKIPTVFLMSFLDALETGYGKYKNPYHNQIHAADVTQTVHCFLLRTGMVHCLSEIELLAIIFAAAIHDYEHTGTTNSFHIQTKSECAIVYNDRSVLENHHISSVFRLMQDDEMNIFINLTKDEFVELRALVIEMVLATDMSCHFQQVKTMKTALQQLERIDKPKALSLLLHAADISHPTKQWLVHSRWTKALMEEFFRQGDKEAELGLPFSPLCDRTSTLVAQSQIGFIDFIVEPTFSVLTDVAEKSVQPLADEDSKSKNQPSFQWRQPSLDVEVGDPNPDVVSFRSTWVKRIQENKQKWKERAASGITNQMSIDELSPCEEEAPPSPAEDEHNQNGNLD
measurement_notes: Inhibition of full length recombinant human PDE1B1 using 3',5'-[3H]cAMP as substrate after 30 mins by scintillation proximity assay
pIC50: −log10 of the molar value.

>  <compound>
COc1cc2c(NC(C)Cc3cc(C)n[nH]3)ncnc2c(OC)c1OC (racemic)

>  <pIC50>
7.57

$$$$
>  <compound>
COc1ccc2c(N[C@H](C)Cc3cc(C)[nH]n3)ncnc2c1OC

>  <pIC50>
6.22

$$$$
>  <compound>
COc1ccc2c(NC(C)Cc3cc(C)[nH]n3)ncnc2c1OC (racemic)

>  <pIC50>
7.68

$$$$
>  <compound>
CCC(CC)Nc1ncnc2c(OC)c(OC)c(OC)cc12

>  <pIC50>
7.46

$$$$
>  <compound>
COc1ccc2c([C@H]3CCc4ccc(Cl)cc43)ncnc2c1OC

>  <pIC50>
8.35

$$$$
>  <compound>
COc1cc2ncnc(NC(C)Cc3cc(C)n[nH]3)c2cc1OC (racemic)

>  <pIC50>
7.28

$$$$
>  <compound>
COc1ccc2c(N[C@@H](C)Cc3cc(C)[nH]n3)ncnc2c1OC

>  <pIC50>
8.04

$$$$
